Biological target: Chymase, from human skin (Homo sapiens)
Sequence (P23946 22-247): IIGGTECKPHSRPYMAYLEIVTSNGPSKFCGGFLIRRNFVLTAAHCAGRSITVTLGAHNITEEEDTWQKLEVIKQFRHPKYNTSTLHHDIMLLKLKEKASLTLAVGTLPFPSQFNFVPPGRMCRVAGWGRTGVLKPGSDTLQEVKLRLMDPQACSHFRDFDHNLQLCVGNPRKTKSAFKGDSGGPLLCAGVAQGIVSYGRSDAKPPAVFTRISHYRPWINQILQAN
Assay: Enzymatic assay, chymase
Where a SMILES comes first, the peptide text is derived from it.
measurement-label: Chymase at 100 μM % (%)
Report the value in % with no unit label.

// CC[C@H](C)[C@@H]1NC(=O)[C@@H]2CCCN2C(=O)[C@@H]2CCCN2C(=O)[C@H](CC(=O)O)NC(=O)[C@H](CO)NC(=O)[C@H](CCCCN)NC(=O)[C@H]([C@@H](C)O)NC(=O)[C@@H]2CSSC[C@H](NC1=O)C(=O)N[C@@H](CCCNC(=N)N)C(=O)N1CCC[C@@H]1C(=O)N1CCC[C@H]1C(=O)N[C@@H](Cc1ccccc1Cl)C(=O)N2 [Ex. 13] (HELM PEPTIDE1{[O=C([C@H](Cc1ccccc1Cl)N[*:1])[*:2]].C.T.K.S.D.P.P.I.C.R.[dP].P}$PEPTIDE1,PEPTIDE1,2:R3-10:R3|PEPTIDE1,PEPTIDE1,1:R1-13:R2$$$V2.0) : Chymase at 100 μM % value = 19.9
